Provenance of the data: PubChem BioAssay AID748

target: Bcl-2-like protein 10 (Homo sapiens); assay: displacers of TR3 peptide from Bcl-B, primary screen, selectivity assay for Bfl-1 inhibitor project, biochemical, fluorescence polarization, FITC-TR3 peptide (AID 748); details: FP displacement of FITC-TR3 peptide from Bcl-B; at 20 µM; hits give high values;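 further: plate controls were wells without compound for no effect and wells lacking Bcl-B protein for full effect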
Out of some 96,000 compounds screened, about 100 (0.1%) were called active. Only a selection was taken, and actives are over-represented in it overall. Results with a measured potency or affinity are listed apart.
Below: a set of entries, each annotated with reported displacement.
readoutType: displacement

> print(dat)
                                    compound   readouttype     measuredresult
 1     O=C(COC(=O)CCc1ccccc1)Nc1ncc(Cl)cc1Cl  displacement   24.2% (inactive)
 2                CCSc1nnc(NC(=O)c2cnccn2)s1  displacement     58.3% (active)
 3                CCSc1nnc(NC(=O)c2ccccn2)s1  displacement    2.1% (inactive)
 4  Cc1ccc(S(=O)(=O)NCC(=O)OC(C)C(=O)Nc2ncc(Cl)cc2Cl)cc1 (stereo not given)  displacement   -1.5% (inactive)
 5  CC1(CC(=O)O)SC(=O)NC1=O (stereo not given)  displacement     -6% (inactive)
 6  Cn1c(=O)[nH]c(=O)c2c1nc(Br)n2CC(O)c1ccccc1 (stereo not given)  displacement    6.4% (inactive)
 7        CCN(CC)CCC(=O)NC(C)(C)Cc1ccc(O)cc1  displacement   -7.8% (inactive)
 8  O=c1[nH]c(=O)n(C2CCCO2)cc1Br (stereo not given)  displacement   -6.3% (inactive)
 9  COc1cc(-c2nnc(SCc3ccccc3Cl)o2)cc(OC)c1OC  displacement   -2.8% (inactive)
10  COc1cc(CCC(=O)OCC(=O)Nc2ncc(Cl)cc2Cl)cc(OC)c1OC  displacement   32.6% (inactive)
11  CCN(CC)c1ccc(C(=O)OCc2cc(=O)oc3cc(O)ccc23)cc1  displacement      0% (inactive)
12               O=C(CSCc1ccc(Cl)cc1)c1ccco1  displacement   16.6% (inactive)
13                 CCc1nnc(NC(=O)c2cnccn2)s1  displacement     -1% (inactive)
14  CCCn1c(SCC(=O)NCCc2ccc(OC)c(OC)c2)nc2c1c(=O)n(C)c(=O)n2C  displacement  -14.2% (inactive)
15  Cc1ccc(S(=O)(=O)CCC(=O)OCC(=O)Nc2ncc(Cl)cc2Cl)cc1  displacement   24.5% (inactive)
16  CCc1nnc(NC(=O)C(=O)NCCOC(=O)c2ccccc2Cl)s1  displacement  -14.4% (inactive)
17  Cc1cc(NC(=O)COC(=O)C2CCN(S(=O)(=O)c3ccc(Cl)cc3)CC2)no1  displacement    7.5% (inactive)
18        CC1(C)OC(=O)C(=CNc2ccccc2F)C(=O)O1  displacement    5.4% (inactive)
19                  O=C(CSc1ccccc1Cl)c1ccco1  displacement    3.7% (inactive)
20              Cc1ccc(C)n1-c1ccc(C(=O)O)cc1  displacement   42.6% (inactive)
21                   O=C(O)c1cccc(N2CCCC2)c1  displacement   -2.4% (inactive)
22        Brc1ccc(-c2nn3c(-c4ccco4)nnc3s2)o1  displacement     30% (inactive)
23  Cc1ccc(-n2c(SCC(=O)N3CCCC3)nc3c(c2=O)SCC3)cc1  displacement      1% (inactive)
24                 Clc1ccc(CN2CCCCCCC2)cc1Cl  displacement   -0.5% (inactive)
25    CCN(CC)S(=O)(=O)c1cc(C(=O)O)c(Cl)cc1Cl  displacement   -5.8% (inactive)

----------
Below: a set of entries, each annotated with reported displacement.
molecular target: Bcl-2-like protein 10 (Homo sapiens); test: displacers of TR3 peptide from Bcl-B, primary screen, selectivity assay for Bfl-1 inhibitor project, biochemical, fluorescence polarization, FITC-TR3 peptide (AID 748); settings: FP displacement of FITC-TR3 peptide from Bcl-B; at 20 µM; hits give high values;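 further: plate controls were wells without compound for no effect and wells lacking Bcl-B protein for full effect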
In all, about 96,000 compounds went through this assay and about 100 (0.1%) were called active. The list comes from a sample in which actives are over-represented; it also holds close analogues and randomly drawn compounds. Results with a measured potency or affinity are listed apart.
readoutType: displacement (%)

> print(dat)
                                    molecule   readouttype  measuredresult
 1   O=C(Oc1ccc(-c2cn3c(n2)SCC3)cc1)c1ccccc1  displacement            -5.6
 2     Cc1cccc(NC(=O)CSc2nnc(-c3ccco3)o2)c1C  displacement             7.2
 3               OC1CCN(c2ncnc3nc[nH]c23)CC1  displacement             2.2
 4  Cc1ccc(SCC(=O)Nc2ccc(-c3nnc(-c4ccco4)o3)cc2)cc1  displacement            -9.5
 5           CCCSc1nc(N)c2c3c(sc2n1)CN(C)CC3  displacement            26.6
 6  Cc1cccc(NC(=O)CSc2nnc(-c3ccco3)c(-c3ccco3)n2)c1C  displacement            37.3
 7  Cc1cccc(C)c1NC(=O)CSc1nnc(-c2ccco2)c(-c2ccco2)n1  displacement            -4.1
 8  O=C(O)CCCNc1cc(N2CCC3(CC2)OCCO3)c2noc3c2c1C(=O)c1ccccc1-3  displacement            33.8
 9  Brc1ccc(-c2cn3c(n2)CCc2ccc4cccnc4c2-3)cc1  displacement               1
10  COc1ccc(CN2C(=O)CN(C3CCCCCC3)C(=O)C2c2ccc(F)cc2)cc1 (stereo unspecified)  displacement            -2.9
11        O=C(Nc1ccc(N2CCCCC2)cc1)c1cccnc1Cl  displacement           -16.3

----------
target: Bcl-2-like protein 10 (Homo sapiens) (UniProt Q9HD36); test: displacers of TR3 peptide from Bcl-B, primary screen, selectivity assay for Bfl-1 inhibitor project, biochemical, fluorescence polarization, FITC-TR3 peptide (AID 748); conditions: FP displacement of FITC-TR3 peptide from Bcl-B; at 20 µM;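 further: plate controls were wells without compound for no effect and wells lacking Bcl-B protein for full effect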
Hit rate of the full screen: of about 96,000 compounds, about 100 (0.1%) were called active.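 How the source made its calls: active means displacement above 50% at 20 µM plus a fluorescence interference ratio under 1.5; inactive means the rest.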 Only a selection was taken, and actives are over-represented in it overall. Measured potencies and affinities stand elsewhere.
Outcome codes: active, inactive

> print(dat)
                                    compound  categorylabel
 1  CCn1c(SCC(=O)c2ccc(O)c(O)c2)nnc1-c1ccc(C)cc1       inactive
 2   CCn1c(SCc2ccc(C#N)cc2)nnc1-c1cccc(Cl)c1       inactive
 3  COC(=O)c1ccccc1NC(=O)c1noc2c1CC(C(C)(C)C)CC2 (stereo not drawn)       inactive
 4  Cc1c(N2C(=O)c3ccc4c5c(ccc(c35)C2=O)CC4)c(=O)n(-c2ccccc2)n1C         active
 5  CC1(C)CC(=O)C2=C(C1)c1c(ccc3ccccc13)NC2c1ccco1 (stereo not drawn)       inactive
 6          COc1cc(NC(=O)C2CCCCC2)c2ncccc2c1       inactive
 7  Cc1nnc(SCCn2c(N3CCC(C)CC3)nc3c2c(=O)[nH]c(=O)n3C)s1       inactive
 8  COc1ccc(N=C2SC(CC(=O)Nc3ccccc3)C(=O)N2CC2CCCO2)cc1 (stereo not drawn)       inactive
 9  O=C1CCCC2=C1C(c1ccco1)Nc1ccc(C(=O)c3ccccc3)cc1N2 (stereo not drawn)       inactive
10     CCC(=O)Nc1ccc2nc(SCC(=O)N3CCCC3)sc2c1       inactive
11     Cc1cc(C)cc(NC(=O)Cn2cc3c(n2)CCCCC3)c1       inactive
12     COC(=O)c1cc(C(=O)OC)n(Cc2ccc(F)cc2)n1       inactive
13           CCc1cn(S(=O)(=O)c2ccccc2OC)nc1N       inactive
14  Cn1c(C(C#N)C(=O)c2ccco2)nc2ccccc21 (stereo not drawn)       inactive
15        COc1ccc(OCC(=O)Nc2cccc3cccnc23)cc1       inactive
16   CC(=O)Nc1ccc(NC(=O)Cn2cc3c(n2)CCCC3)cc1       inactive
17  COc1ccc(Cl)cc1C(=O)Nc1ccc(S(=O)(=O)N2CCCC2)cc1       inactive
18  CC(=O)c1c(C)[nH]c(C(=O)Nc2c(C)n(C)n(-c3ccccc3)c2=O)c1C       inactive
19  Cc1ccc(-c2cc(C(F)(F)F)n3nc(C(=O)Nc4c(C)n(C)n(-c5ccccc5)c4=O)cc3n2)cc1       inactive
20       O=C(c1coc(=O)c(Br)c1)N1CCCc2ccccc21       inactive
21  CCn1c(SCC(=O)c2ccc(O)c(O)c2)nnc1-c1ccccc1       inactive
22                Cc1nc(=S)n(-c2ccccc2)[nH]1       inactive
23              Cc1cccc(C)c1NC(=O)CNc1ccccc1       inactive
